- SYSTEM TESTED: WT STING (Homo sapiens, UniProt Q86WV6, H232R)
- Sequence (Q86WV6 whole entry H232R): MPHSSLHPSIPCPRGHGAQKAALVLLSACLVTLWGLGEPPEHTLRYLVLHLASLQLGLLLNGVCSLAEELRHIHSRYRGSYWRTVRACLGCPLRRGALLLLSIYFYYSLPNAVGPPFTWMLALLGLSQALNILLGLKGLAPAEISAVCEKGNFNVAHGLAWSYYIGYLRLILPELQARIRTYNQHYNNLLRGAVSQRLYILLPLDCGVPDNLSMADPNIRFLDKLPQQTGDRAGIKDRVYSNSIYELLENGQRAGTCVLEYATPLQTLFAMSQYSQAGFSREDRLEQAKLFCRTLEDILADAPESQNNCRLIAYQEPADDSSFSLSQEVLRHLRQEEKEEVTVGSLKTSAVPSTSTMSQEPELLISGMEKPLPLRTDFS
- TEST SUMMARY: 293T WT STING standard reporter assay
- Type: cell-based
- Set-up: host or cells: 293T (ATCC CRL-3216), stably transfected, with 4xISRE firefly luciferase reporter
- APPLIED CONDITIONS: 293T wtSTING-FL cells, ISRE firefly luciferase; no digitonin; 7 hours with compounds; 8-point curve
- Protocol: Two complementary oligonucleotides of the sequence […] […] The medium was removed next day and three-fold serial dilutions of compounds in 100 μl medium were added to the cells. […] After 50 μl of the medium was removed, 30 μl of ONE-Glo™ Luciferase Assay System reagent (cat. #E6120, Promega, Madison, USA) was added to each well and luminescence was read on Synergy H1 (Biotek, Winooski, USA).
MEASUREMENT KIND: EC50 (nM)
Response body: numeric value in nM, unit text excluded.

Known EC50 results, listed for orientation:
[[record]]
molecule = "Nc1ncnc2c1ncn2[C@H]1CC2OP(=O)(O)OC[C@H]3O[C@@H](n4cnc5c(N)ncnc54)C(F)C3OP(=O)(O)OC[C@H]2C1 (some centres unmarked)"
endpoint_result = 11700

[[record]]
molecule = "CCCCCCCC(=O)OCOP1(=O)OC[C@H]2O[C@@H](n3cnc4c(N)ncnc43)[C@H](F)[C@@H]2OP(=O)(OCOC(=O)CCCCCCC)OC[C@H]2C[C@@H](n3cnc4c(N)ncnc43)[C@H](F)[C@@H]2O1 (single isomer, unassigned) [Compound 146c]"
endpoint_result = 1

[[record]]
molecule = "Nc1ncnc2c1ncn2[C@@H]1C[C@@H]2COP(=O)(S)OC3C[C@H](n4cnc5c(N)ncnc54)O[C@@H]3COP(=O)(S)OC2C1F (single isomer, unassigned) [Compound 142b]"
endpoint_result = 500

[[record]]
molecule = "CC(C)(C)C(=O)OCOP1(=O)OC[C@H]2C[C@@H](n3cnc4c(N)ncnc43)C(F)[C@H]2OP(=O)(OCOC(=O)C(C)(C)C)OC[C@H]2O[C@@H](n3cnc4c(N)ncnc43)[C@@H](F)C2O1 (single isomer, unassigned) [Compound 136c]"
endpoint_result = 50


Looking for the measured EC50 of Nc1ncnc2c1ncn2[C@@H]1C[C@@H]2COP(=O)(S)OC3C(F)[C@H](n4cnc5c(N)ncnc54)O[C@@H]3COP(=O)(S)OC2C1F (single isomer, unassigned) [Compound 102d] , can you help? 400
